I'd be grateful if you could share measured MIC for these entries.
Test system: Corynebacterium diphtheriae Type intermedius
Test: Minimum inhibitory concentration, standard serial dilution method
Assay type: cell-based
Conditions: Corynebacterium diphtheriae Type intermedius; Brain Heart Infusion broth, 37°C, 24 hours; read-out: Minimum Inhibitory Concentrations
Give bare numbers, in µg/mL.

These recorded examples may help you get a feel for the data.
Fill in reported MIC for this entry: CCC(=O)OC1C=CC=CCC(C)OC(=O)CC(OC(=O)CC)C(OC)C(OC2OC(C)C(OC3CC(C)(OCOC(C)=O)C(OC(=O)CC)C(C)O3)C(N(C)C)C2O)C(CC=O)CC1C (stereo not shown) [9-O-propionyl-3"-O-acetoxymethyl-SF-837]
0.19

Look up and report measured MIC for this entry: CCC(=O)OCOC1(C)CC(OC2C(C)OC(OC3C(CC=O)CC(C)C(OC(=O)CC)C=CC=CCC(C)OC(=O)CC(OC(=O)CC)C3OC)C(O)C2N(C)C)OC(C)C1OC(=O)CC (stereo not shown)
0.19

Look up and state reported MIC for CCC(=O)OC1CC(=O)OC(C)CC=CC=CC(OC(C)=O)C(C)CC(CC=O)C(OC2OC(C)C(OC3CC(C)(OCOC(C)=O)C(OC(=O)CC)C(C)O3)C(N(C)C)C2O)C1OC (stereo not shown) [9-O-acetyl-3"-O-acetoxymethyl-SF-837]
0.19

In the following, a different compound is considered.
Fill in MIC for record CCC(=O)OCOC1(C)CC(OC2C(C)OC(OC3C(CC=O)CC(C)C(OC(C)=O)C=CC=CCC(C)OC(=O)CC(OC(=O)CC)C3OC)C(O)C2N(C)C)OC(C)C1OC(=O)CC (stereo not shown)
0.19
